# system_under_test: Amine oxidase [flavin-containing] B (Homo sapiens, UniProt P27338)
# Sequence (P27338 whole entry): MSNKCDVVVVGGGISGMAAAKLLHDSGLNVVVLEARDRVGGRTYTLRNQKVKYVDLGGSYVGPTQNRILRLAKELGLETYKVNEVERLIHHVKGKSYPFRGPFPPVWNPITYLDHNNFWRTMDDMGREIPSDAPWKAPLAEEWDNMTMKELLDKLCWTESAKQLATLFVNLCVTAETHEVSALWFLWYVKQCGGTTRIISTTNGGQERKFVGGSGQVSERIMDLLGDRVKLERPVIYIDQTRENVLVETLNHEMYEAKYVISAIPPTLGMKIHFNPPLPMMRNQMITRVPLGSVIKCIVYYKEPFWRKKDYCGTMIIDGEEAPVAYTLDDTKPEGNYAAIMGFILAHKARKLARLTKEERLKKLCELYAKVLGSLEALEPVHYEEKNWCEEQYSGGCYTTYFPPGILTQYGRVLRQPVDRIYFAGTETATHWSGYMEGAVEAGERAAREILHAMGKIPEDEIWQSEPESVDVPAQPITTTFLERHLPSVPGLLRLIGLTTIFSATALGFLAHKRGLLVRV
# assay_details: biochemical
# Description: Inhibition of human recombinant MAOB expressed in baculovirus infected BTI insect cells assessed as hydrogen peroxide production after 15 mins by Amplex red assay
measurement_kind: IC50 (µM)

Solved cases (5 shown):
CNC(=S)N1CC(C)C(c2ccc(Cl)cc2)=N1 (stereo not given)    34.8
CNC(=S)N1CCC(c2cccc(C)c2)=N1    53.4
CNC(=S)N1CCC(c2ccc(OC)cc2)=N1    13.7
CNC(=S)N1CC(C)C(c2ccc(OC)cc2)=N1 (stereo not given)    49.4
CNC(=S)N1CCC(c2cccc(OC)c2)=N1    71.3

I. COc1ccc(C2=NN(C(N)=S)CC2)cc1
II. CNC(=S)N1CCC(c2ccc(F)cc2)=N1
-- ask Which item exceeds the other in IC50, I or II ? Your answer should be the label attached to the chosen record.
-- reply II
(II: 51 µM, I: 15.5 µM)

A. Cc1ccc(C2=NN(C(N)=S)CC2)cc1
B. COc1ccc(C2=NN(C(N)=S)CC2C)cc1 (stereo not given)
-- ask Parameter metric = IC50. Return the lower-valued option from A and B . Give the label of your selection.
-- reply A
(A: 18.1 µM, B: 84.6 µM)

---

# Species on record: Homo sapiens
# assay_details: Selectivity index, ratio of IC50 for human recombinant MAOA to IC50 for human recombinant MAOB
Reported Selectivity Index values for the following molecules.

Illustrative cases are given below, each with its answer.
COc1ccc(C2=NN(C(N)=S)CC2C)cc1 (stereo not given)    > 1.18
CNC(=S)N1CCC(c2ccc(C)cc2)=N1    > 5.96
CNC(=S)N1CC(C)C(c2ccc(Cl)cc2)=N1 (stereo not given)    > 2.87
CNC(=S)N1CCC(c2ccc(F)cc2)=N1    > 1.96
COc1ccc(C2=NN(C(N)=S)CC2)cc1    > 6.46

-- ask State its Selectivity Index for this molecule: `Cc1ccc(C2=NN(C(N)=S)CC2)cc1`
-- reply > 5.51

-- ask Give Selectivity Index for `CNC(=S)N1CCC(c2cccc(OC)c2)=N1`
-- reply > 1.4

-- ask Kindly indicate its recorded Selectivity Index. Item: `CNC(=S)N1CCC(c2cccc(C)c2)=N1`
-- reply > 1.87

-- ask Give reported Selectivity Index value for `CNC(=S)N1CCC(c2ccc(OC)cc2)=N1`
-- reply > 7.3

-- ask Output Selectivity Index of CNC(=S)N1CC(C)C(c2ccc(OC)cc2)=N1 (stereo not given)
-- reply > 2.02
